System: SW480
Protocol: Antiproliferative activity against human SW480 cells after 48 hrs by SRB method
Type: functional, cell-based
Conditions: SW480, 48 h
pIC50: −log10 of the molar value.
Threshold check on pIC50: at or above 5 gives satisfied, strictly below gives not satisfied.

Here's what some known entries look like.
[
  {
    "Molecule": "O=C(/C=C/c1cccs1)c1ccccc1-c1ccc(F)cc1",
    "Class Assignment": "not satisfied"
  },
  {
    "Molecule": "CN(C)c1ccc(/C=C/C(=O)c2ccccc2-c2ccc(F)cc2)cc1",
    "Class Assignment": "satisfied"
  }
]

Please tell me: is the compound COc1ccc(-c2ccccc2C(=O)/C=C/c2ccc(Br)cc2)cc1OC at or over 5 in terms of pIC50?
satisfied

pIC50 >= 5 for COc1ccc(/C=C/C(=O)c2ccccc2-c2ccc(F)nc2)cc1 ?
satisfied

Assess whether reported pIC50 for COc1ccc(CNC(=O)c2ccccc2-c2ccc(F)cc2)cc1 sits at 5 or higher.
not satisfied

Does COc1ccc(OC)c(/C=C/C(=O)c2ccccc2-c2ccc(OC)c(OC)c2)c1 have a reported pIC50 of at least 5?
satisfied

Does COc1ccc(/C=C/C(=O)c2ccccc2-c2ccc(F)nc2)cc1OC have a reported pIC50 of at least 5?
satisfied

Reported pIC50 at or above 5? COc1ccc(/C=C/C(=O)c2ccccc2-c2ccc(OC)c(OC)c2OC)cc1O
satisfied

----------
Test system: HepG2
Protocol: Antiproliferative activity against human HepG2 cells after 48 hrs by SRB method
Assay type: functional, cell-based
Conditions: HepG2, 48 h
pIC50: −log10 of the molar value.
// reported pIC50 per item

Here are 2 compounds together with their reported answers.
[
  {
    "Molecule": "COc1ccc(CNC(=O)c2ccccc2-c2ccc(F)cc2)cc1",
    "Recorded Value": "< 4.30"
  },
  {
    "Molecule": "COc1cc(CNC(=O)c2ccccc2-c2ccc(F)cc2)cc(OC)c1OC",
    "Recorded Value": "< 4.30"
  }
]

# pIC50 lookup, item COc1ccc(CNC(=O)c2ccccc2-c2ccc(F)cc2)cc1OC
< 4.30

----------
System: SW480
Protocol: Antiproliferative activity against human SW480 cells after 48 hrs by SRB method
Type: functional, cell-based
Conditions: SW480, 48 h
Criterion: IC50 strictly under 8 µM. Met: 1. Not met: -1.

Below, 2 molecules whose answers are already recorded.
[
  {
    "Molecule": "COc1ccc(C(=O)/C=C/c2ccccc2-c2ccc(F)cc2)cc1",
    "System Tested": "SW480",
    "Class Assignment": -1
  },
  {
    "Molecule": "COc1cc(C(=O)/C=C/c2ccccc2-c2ccc(F)nc2)ccc1O",
    "System Tested": "SW480",
    "Class Assignment": -1
  }
]

Lab note: confirm whether the reported IC50 for this molecule is below 8 µM, equality not counting. molecule: O=C(/C=C/c1ccccc1-c1ccc(F)cc1)c1cccc(O)c1
-1

IC50 under 8 µM? Item: COc1ccc(C(=O)/C=C/c2ccccc2-c2ccc(F)nc2)cc1
-1

Given COc1cc(/C=C/C(=O)c2ccccc2-c2ccc(F)cc2)ccc1O , is recorded IC50 strictly lower than 8 µM?
1

Lab note: confirm whether the reported IC50 for this molecule is below 8 µM, equality not counting. molecule: COc1ccc(/C=C/C(=O)c2ccccc2-c2cccc(F)c2)cc1O
1

IC50 strictly < 8 µM for this molecule? Cc1ccc(/C=C/C(=O)c2ccccc2-c2ccc(F)cc2)o1
-1

Dear colleague, could you confirm whether IC50 of COc1cc(CNC(=O)c2ccccc2-c2ccc(F)cc2)cc(OC)c1OC falls below 8 µM? Thanks.
-1

Lab note: confirm whether the reported IC50 for this molecule is below 8 µM, equality not counting. molecule: COc1ccc(CNC(=O)c2ccccc2-c2ccc(F)cc2)cc1OC
-1

A record lists COc1ccc(/C=C/C(=O)c2ccccc2-c2ccc(F)cc2)cc1O . Is its IC50 below 8 µM?
1

Lab note: IC50 threshold 8 µM. Does this molecule come in strictly under it? COc1ccc(/C=C/C(=O)c2ccccc2-c2ccc(OC)c(OC)c2)cc1
1

Hello, is IC50 of the following molecule strictly smaller than 8 µM? CC(=O)O[C@H]1C(=O)[C@@]2(C)[C@H]([C@H](OC(=O)c3ccccc3)[C@]3(O)C[C@H](OC(=O)[C@H](O)[C@@H](NC(=O)c4ccccc4)c4ccccc4)C(C)=C1C3(C)C)[C@]1(OC(C)=O)CO[C@@H]1C[C@@H]2O [PACLITAXEL]
1

Is the reported IC50 for COc1ccc(/C=C/C(=O)c2ccccc2-c2ccc(F)cc2)cc1B(O)O strictly below 8 µM?
1

Is the reported IC50 for COc1ccc(C(=O)/C=C/c2ccccc2-c2ccc(F)nc2)cc1OC strictly below 8 µM?
-1

Field: below-cutoff. Rule: recorded IC50 strictly less than 8 µM. Subject: O=C(/C=C/c1ccccc1-c1ccc(F)nc1)c1cccc(O)c1
1

IC50 under 8 µM? Item: COc1cc(C(=O)/C=C/c2ccccc2-c2ccc(F)cc2)ccc1O
1
